- assayed target: T1, human ceruloplasmin (human, UniProt P00450 20-1065)
- T1 construct: also called CP; purified CP
- T1 sequence: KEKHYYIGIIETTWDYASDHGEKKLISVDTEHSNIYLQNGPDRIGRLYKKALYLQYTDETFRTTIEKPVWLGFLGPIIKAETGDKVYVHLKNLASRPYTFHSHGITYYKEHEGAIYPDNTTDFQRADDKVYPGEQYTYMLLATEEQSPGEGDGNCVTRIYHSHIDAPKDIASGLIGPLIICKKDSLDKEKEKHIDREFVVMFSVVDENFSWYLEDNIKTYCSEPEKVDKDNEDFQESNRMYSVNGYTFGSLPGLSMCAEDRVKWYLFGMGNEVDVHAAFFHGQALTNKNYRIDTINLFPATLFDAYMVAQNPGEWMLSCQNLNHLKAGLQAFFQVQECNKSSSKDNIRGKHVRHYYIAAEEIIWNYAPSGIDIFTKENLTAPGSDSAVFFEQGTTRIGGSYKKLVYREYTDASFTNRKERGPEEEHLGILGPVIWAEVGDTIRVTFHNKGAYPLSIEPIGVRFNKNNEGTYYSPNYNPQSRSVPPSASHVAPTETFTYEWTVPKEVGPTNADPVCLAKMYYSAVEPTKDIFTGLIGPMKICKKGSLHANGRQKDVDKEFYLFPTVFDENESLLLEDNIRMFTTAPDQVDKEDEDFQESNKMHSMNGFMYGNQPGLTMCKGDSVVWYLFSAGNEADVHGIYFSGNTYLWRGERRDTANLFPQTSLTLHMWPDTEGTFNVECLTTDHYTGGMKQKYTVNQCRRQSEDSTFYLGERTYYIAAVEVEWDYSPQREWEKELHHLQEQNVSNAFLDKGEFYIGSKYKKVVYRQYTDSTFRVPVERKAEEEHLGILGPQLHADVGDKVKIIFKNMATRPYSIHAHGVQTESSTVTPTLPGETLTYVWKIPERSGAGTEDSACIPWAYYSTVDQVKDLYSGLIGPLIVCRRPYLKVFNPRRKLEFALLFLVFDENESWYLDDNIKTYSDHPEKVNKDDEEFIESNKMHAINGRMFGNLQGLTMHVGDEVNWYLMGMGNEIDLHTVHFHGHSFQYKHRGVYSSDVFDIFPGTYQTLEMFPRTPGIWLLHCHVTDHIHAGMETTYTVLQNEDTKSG
- test method notes: competition ELISA on coated CP, biotinylated probe; competitor: mAb D
Quick reference: probe binding, % of diluent control of the listed items.
Give the value in % but do not write % after it.

Known probe binding, % of diluent control results, listed for orientation:
anti-CP mAb B (antibody, V domains shown, Recombinant full-length rabbit IgG from HEK-293; tested as conditioned medium, Protein A-purified and biotinylated) VH: QQQLEESGGGLVKPGGTLTLTCKASGIDFSSYYYMCWVRQAPGKGLEWIACIYVIDDTIYCANWAKGRFTISKTSSTTVTLQMTSLTAADTATYFCARDGSSGIRDYFDLWGPGTLVTVSS VL: AYDMTQTPASVEVAVGGTVTIKCQASESVSTWLAWYQQKPGQPPKLLIYKASDLASGVPSRFKGSGSGTEFTLTISGVECADAATYYCQQGYTYNNVENVFGGGTEVVVKG ... 34
anti-CP mAb C (antibody, V domains shown, Recombinant full-length rabbit IgG from HEK-293; also called mAb2) VH: QSVEESGGRLVTPGTPLTLTCTASGFSLSRYYMSWVRQAPGKGLEWIGMIYPSSGSTWYASWVKGRFTISATATSVDLKITSPTTEDTATYFCVRDRYPGYNGDSFNLWGQGTLVTVSS VL: AQVLTQTASPVSAAVGSTVTINCQASQSVYNNNYLAWFQQKPGQPPKRLIYQASKLAIGVPSRFSGSGSGTQFTLTISDVQCDDAATYYCLGSYGCNSVDCNVFGGGTEVVVKG ... 93

Which probe binding, % of diluent control reading was recorded for the binder anti-CP mAb H (antibody, V domains shown, Recombinant full-length rabbit IgG from HEK-293; tested as conditioned medium, Protein A-purified and biotinylated) VH: QSVEESGGRLVTPGTPLTLTCTVSGFSLSTYAMGWVRQAPGKGLEYIGIIYGGSGTFYASWAKGRFTISKTSTTVDLKITSPTTEDTATYFCARDGDDSYFDYFNLWGQGTLVTVSS VL: AAVLTQTPASVSAAVGGTVSISCQSNENIGSNLAWYQQKPGQPPKLLIYGASTLTSGVPSRFKGSGSGTAFTLTISGVQCDDAATYYCLGGYLSTSDTTFGGGTAVVVKG ? 33
